# tgt: hT1R2/T1R3mosaicA (UniProt Q8TE23+Q925D8, A12W/A31M/A558R/A588V/A645S/A698V/A702T/A793V/A807V/C582S/C678S/E16H/E725V/F14L/F29L/F541I/F612A/F622V/F695L/H728R/I36V/I60P/I617V/I706V/I740A/I803L/K30R/K555R/K565R/K818R/K827G/L17P/L560F/L684P/L735F/L823M/L825Q/M19T/M644L/M744T/N52R/N547G/N58S/N63T/N675D/P545F/P561R/P564S/P61V/Q32K/Q53S/Q550E/Q56R/Q611L/Q757R/Q795R/Q831P/R632Q/S22P/S45E/S576L/S595F/S610P/S635P/S637R/S679G/S717H/T46A/T50G/T542A/T663I/T694M/T813A/V573A/V584A/V718M/V723A/V729T/V738A/V805L/V812A/V821L/W599R/W676R/W824R/Y680C/Y794L)
# Sequence (Q8TE23 20-839, stated change not applied): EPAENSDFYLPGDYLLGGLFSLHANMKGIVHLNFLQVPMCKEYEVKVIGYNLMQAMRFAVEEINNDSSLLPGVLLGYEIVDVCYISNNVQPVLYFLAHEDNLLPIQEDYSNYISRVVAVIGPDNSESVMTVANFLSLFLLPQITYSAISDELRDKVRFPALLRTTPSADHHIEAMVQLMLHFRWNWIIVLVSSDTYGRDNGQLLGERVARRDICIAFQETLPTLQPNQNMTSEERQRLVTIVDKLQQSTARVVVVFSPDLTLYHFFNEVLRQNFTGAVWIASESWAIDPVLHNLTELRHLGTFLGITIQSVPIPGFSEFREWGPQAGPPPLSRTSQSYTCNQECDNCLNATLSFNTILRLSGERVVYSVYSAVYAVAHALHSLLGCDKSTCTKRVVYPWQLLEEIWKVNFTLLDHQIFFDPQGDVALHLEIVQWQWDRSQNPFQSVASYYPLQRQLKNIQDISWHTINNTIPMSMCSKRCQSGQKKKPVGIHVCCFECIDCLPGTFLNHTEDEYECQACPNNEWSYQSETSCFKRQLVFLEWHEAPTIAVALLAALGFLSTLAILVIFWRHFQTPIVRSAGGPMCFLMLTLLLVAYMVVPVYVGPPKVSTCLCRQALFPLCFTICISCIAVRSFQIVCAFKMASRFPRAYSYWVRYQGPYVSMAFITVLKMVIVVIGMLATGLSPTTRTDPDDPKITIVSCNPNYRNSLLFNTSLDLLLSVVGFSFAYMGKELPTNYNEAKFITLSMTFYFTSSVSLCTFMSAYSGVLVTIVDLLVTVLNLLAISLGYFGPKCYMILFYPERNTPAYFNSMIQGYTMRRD
# Sequence (Q925D8 with tags, fused parts or gaps with the stated changes limits assumed): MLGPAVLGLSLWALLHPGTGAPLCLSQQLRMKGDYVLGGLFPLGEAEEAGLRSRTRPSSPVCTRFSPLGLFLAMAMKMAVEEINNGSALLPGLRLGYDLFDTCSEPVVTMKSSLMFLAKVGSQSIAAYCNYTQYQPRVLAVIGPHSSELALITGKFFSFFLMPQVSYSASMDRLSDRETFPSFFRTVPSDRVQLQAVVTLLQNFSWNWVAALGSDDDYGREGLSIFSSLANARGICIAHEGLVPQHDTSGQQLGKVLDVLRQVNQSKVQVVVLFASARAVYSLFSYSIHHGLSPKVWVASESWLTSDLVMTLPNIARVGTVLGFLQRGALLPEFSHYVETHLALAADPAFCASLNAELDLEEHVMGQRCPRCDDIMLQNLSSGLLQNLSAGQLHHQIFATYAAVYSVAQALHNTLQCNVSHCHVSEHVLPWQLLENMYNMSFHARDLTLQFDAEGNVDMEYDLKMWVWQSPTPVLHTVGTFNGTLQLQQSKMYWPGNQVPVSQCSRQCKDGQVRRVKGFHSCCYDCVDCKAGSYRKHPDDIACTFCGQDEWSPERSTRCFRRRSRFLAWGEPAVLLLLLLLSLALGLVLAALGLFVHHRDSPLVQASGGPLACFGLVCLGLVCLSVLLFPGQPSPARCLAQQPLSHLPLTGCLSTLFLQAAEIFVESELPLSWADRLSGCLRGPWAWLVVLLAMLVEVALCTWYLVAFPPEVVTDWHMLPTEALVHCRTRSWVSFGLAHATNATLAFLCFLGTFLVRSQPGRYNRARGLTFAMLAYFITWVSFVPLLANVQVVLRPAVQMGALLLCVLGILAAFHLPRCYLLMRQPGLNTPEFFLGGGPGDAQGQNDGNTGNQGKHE
# experimental setup: Table 5; genes hT2/T3mA (hT1R2, T1R3mA); HEK293E cells
Residues, ends and D or L forms follow the SMILES beside them.
Entries annotated with measured S/N

compound	S/N
COc1ccc(CCC(=O)c2c(O)cc(O[C@@H]3O[C@H](CO)[C@@H](O)[C@H](O)[C@H]3O[C@@H]3O[C@@H](C)[C@H](O)[C@@H](O)[C@H]3O)cc2O)cc1O [NHDC, neohesperidin dihydrochalcone]	2.9
COC(=O)[C@H](Cc1ccccc1)NC(=O)[C@@H](N)CC(=O)O [Aspartame, aspartame] (HELM PEPTIDE1{D.F.[CO[*:1]]}$$$$V2.0)	4.4
COC(=O)[C@H](Cc1ccccc1)NC(=O)[C@H](CC(=O)O)NCCC(C)(C)C	5.7
OC[C@H]1O[C@@](CO)(O[C@H]2O[C@H](CO)[C@@H](O)[C@H](O)[C@H]2O)[C@@H](O)[C@@H]1O	2.6
O=C1NS(=O)(=O)c2ccccc21.[Na] [Saccharin Na, sodium saccharin]	4.3
OC[C@H]1O[C@H](O[C@]2(CCl)O[C@H](CCl)[C@@H](O)[C@@H]2O)[C@H](O)[C@@H](O)[C@H]1Cl	6.0
COC(=O)[C@H](Cc1ccccc1)NC(=O)[C@H](CC(=O)O)NCCCc1ccc(OC)c(O)c1	7.6
CC1=CC(=O)NS(=O)(=O)O1	3.7
C[C@H](NC(=Nc1ccc(C#N)cc1)NCC(=O)O)c1ccccc1	5.9
